# assayedSystem: rhGH protein (UniProt: P01241) (human) (UniProt P01241)
# Sequence (P01241 27-217 limits assumed): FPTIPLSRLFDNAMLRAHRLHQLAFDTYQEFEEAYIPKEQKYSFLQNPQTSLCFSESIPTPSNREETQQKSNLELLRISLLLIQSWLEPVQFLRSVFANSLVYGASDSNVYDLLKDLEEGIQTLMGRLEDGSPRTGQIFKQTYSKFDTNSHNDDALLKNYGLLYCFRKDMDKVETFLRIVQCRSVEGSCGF
# protocolDescription: ELISA on coated rhGH, anti-6*His HRP; sample after 0.5M NaOH 24h, against WT
# Design: unit not given beside the values
endpointName: EC50 against that of the WT after 0.5M alkali (% higher than WT)
Give bare numbers.

M22 (First round) (VHH) VHH: QVQLVESGGGKAQAGGSLRLSCAVSGMPEFARAMGWFRQAPGKERELLAAIEGIGATTYYADSVKGRFTISRDDAANTVLLQMNSLKPDDTAVYYCAAAFSVTIPTRARHWVDWGPGTLVTVSS ... 50

Turning to the following binder.
Name the reported EC50 against that of the WT after 0.5M alkali (% higher than WT) value associated with the binder M69 (Second round) (VHH, Entry already carries P29T; tail DDDDK-SGGRGS-HHHHHH) VHH: QVQLVESGGGLAQAGGSLRLSCAVSGMTEFARAMGWFRQAPGKERELLAAIEGIGATTYYADSVKGRFTISRDDAANTVLLQMNSLKPDDTAVYYCAAAFSVTIPTRARHWVDWGPGTLVTVSS
50
